tested-system: KRas^G12S (Homo sapiens, UniProt P01116, G12S)
Construct: Biotinylated KRas (corresponding to amino acids 1-169, produced at Accelegan Inc.); biotin (biotinylated); purchased Accelegan Inc
Sequence (P01116 1-169 isoform P01116-2 G12S): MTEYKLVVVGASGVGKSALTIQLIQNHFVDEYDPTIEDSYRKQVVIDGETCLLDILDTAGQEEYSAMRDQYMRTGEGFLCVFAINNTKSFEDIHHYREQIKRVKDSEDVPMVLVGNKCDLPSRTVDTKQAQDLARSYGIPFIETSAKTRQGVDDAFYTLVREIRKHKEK
protocol-notes: KRas binding assay (TR-FRET tracer displacement), KRas G12S
recorded-conditions: TR-FRET tracer displacement, KRas G12S
Parameter IC50: see the listing below.
Field: numeric (nM). Do not append units.

CCc1c(F)ccc2cc(O)cc(-c3ncc4c(N5C[C@@H]6C[C@H](C5)[C@H](O)C6)nc(OCC56CC(F)CN5CC(F)C6)nc4c3F)c12 (stereo partly drawn)	5
Oc1cc(-c2ncc3c(N4C[C@@H]5C[C@H](C4)[C@H](O)C5)nc(OC[C@@]45CCCN4C[C@H](F)C5)nc3c2F)c2ccccc2c1Cl	1690
C[C@@H]1C[C@@H]1c1c(Cl)cc(O)cc1-c1ncc2c(N3CC4CCC(C3)N4)nc(OC[C@@]34CCCN3C/C(=C\F)C4)nc2c1F	2

Continue with the compound presented below.
# return IC50 for "Cc1c(O)cc(-c2ncc3c(N4C[C@@H]5C[C@H](C4)[C@H](O)C5)nc(OC[C@@]45CCCN4C[C@H](F)C5)nc3c2F)c2ccccc12" , test system: KRas^G12S (Homo sapiens, UniProt P01116, G12S)
5660

* * *

tested-system: KRas^G12V (Homo sapiens, UniProt P01116, G12V)
Construct: Biotinylated KRas (corresponding to amino acids 1-169, produced at Accelegan Inc.); biotin (biotinylated); purchased Accelegan Inc
Sequence (P01116 1-169 isoform P01116-2 G12V): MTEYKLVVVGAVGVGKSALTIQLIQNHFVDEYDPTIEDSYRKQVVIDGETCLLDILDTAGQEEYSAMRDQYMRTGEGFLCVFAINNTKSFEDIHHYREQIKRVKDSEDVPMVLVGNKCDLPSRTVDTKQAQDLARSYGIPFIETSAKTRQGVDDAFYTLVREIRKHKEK
protocol-notes: KRas binding assay (TR-FRET tracer displacement), KRas G12V
Parameter IC50: see the listing below.
Field: numeric (nM). Do not append units.

Recorded results for 2 molecules are shown here.
CCc1c(F)ccc2cc(O)cc(-c3ncc4c(N5C[C@@H]6C[C@H](C5)[C@H](O)C6)nc(OC[C@@H]5CC[C@H]6COCCN65)nc4c3F)c12	3
CCc1c(F)ccc2cc(O)cc(-c3ncc4c(N5CC6CCC(C5)C6CCO)nc(OC[C@@]56CCCN5C[C@H](F)C6)nc4c3F)c12 (stereo partly drawn)	20

Continue with the molecule presented below.
# return recorded IC50 for input "CN(C)C(=O)c1cc2n(n1)CCCN(c1nc(OCC34CCCN3CCC4)nc3c(F)c(-c4c(C5CC5)c(Cl)cc5[nH]ncc45)ncc13)C2"
4

* * *

Parameter IC50: see the listing below.
Tested on: KRas-mediated phosphorylation of ERK in H460 cells
protocol-notes: Inhibition of KRas-mediated phosphorylation of ERK (Cisbio HTRF pERK), H460 cells
Format: cell-based
recorded-conditions: Homo sapiens, NCI-H460, HTRF pERK
Experimental: Inhibition of KRas Phosphorylation of ERK (HTRF) by Exemplary Compounds of Formula (I) Cisbio HTRF Advanced PERK Assay Catalog #64[…] […] Add 10 mL of media to stop trypsinizing. Pipette the cells into a conical bottom 50 mL centrifuge tube and centrifuge 5 min×1000 rpm. […] Re-suspend the cell pellet in media, take a cell count, and then adjust the cell density using fresh media. […] At the end of incubation, read plate on the Envision after centrifuging plate 30 sec×1000 rpm.
Field: numeric (nM). Do not append units.

CCc1c(F)ccc2cc(O)cc(-c3ncc4c(N5CCC[C@@](C)(O)C5)nc(OC[C@@]56CCCN5[C@H](COC(=O)N5CCCCC5)CC6)nc4c3F)c12 [Example 721]	12
C[C@@H]1C[C@@H]1c1c(Cl)cc(O)cc1-c1ncc2c(N3CC4CCC(C3)N4)nc(OC[C@@]34CCCN3C/C(=C\F)C4)nc2c1F [Example 806]	107

# return recorded IC50 for input CCc1c(F)ccc2cc(O)cc(-c3ncc4c(N5CCC[C@@](C)(O)C5)nc(OC[C@@]56CCCN5[C@H](COCC5CC5)CC6)nc4c3F)c12 [Example 870]
25

Where do the numbers come from? From patent US20260015350A1.
